Target: T1, human recombinant TGF-b1 (human, UniProt P01137 279-390)
T1 construct: also called TGF-β1; hTGF-β1
T1 sequence (P01137 279-390 limits assumed): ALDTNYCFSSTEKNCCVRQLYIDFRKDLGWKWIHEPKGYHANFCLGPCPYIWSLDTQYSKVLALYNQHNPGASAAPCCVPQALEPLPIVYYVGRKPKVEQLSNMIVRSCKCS
Assay: SPR (Biacore T200), 10 nM Fab over amine-coupled TGFb1 (492 RUs)
measuredQuantity: binding result

{"binder": "13A1_EH Fab (LCR13A1_VK_GLv1_09 + LCR13A1_VH_GLv1_06) (Fab, V domains shown, Human stabilized IgG1 Fab, 6xHis on CH1) VH: QVQLVQSGSVLAKPGASVKVSCKASGYTFTNYWTHWVRQAPGQGLEWIGTIYPGNSDTNYNQKFKDRAKLTAVTSTSTVYMELSSLRSEDTALYYCTREDSRSLNFNGWDYFDHWGQGTLVTVSS VL: DIVMTQSPDSLAVSLGQRASISCRASESVDNYGISLLNWYQQKPGQPPKLLIYAASNQGSGVPSRFSGSGSGTDFTLNIHPLEAEDAATYYCQQSKEVPRTFGGGTKVEIK", "measuredQuantity": "binding result", "testResult": "binds"}
{"binder": "13A1_EG Fab (LCR13A1_VK_GLv1_09 + LCR13A1_VH_GLv1_05) (Fab, V domains shown, Human stabilized IgG1 Fab, 6xHis on CH1) VH: QVQLVQSGSVLAKPGASVKVSCKASGYTFTNYWTHWVRQAPGQGLEWIGTIYPGNSDTNYNQKFKDRAKLTAVTSTSTVYMELSSLRSEDTALYYCTREDSRSLYYNGWDYFDHWGQGTLVTVSS VL: DIVMTQSPDSLAVSLGQRASISCRASESVDNYGISLLNWYQQKPGQPPKLLIYAASNQGSGVPSRFSGSGSGTDFTLNIHPLEAEDAATYYCQQSKEVPRTFGGGTKVEIK", "measuredQuantity": "binding result", "testResult": "binds"}
{"binder": "13A1_DH Fab (LCR13A1_VK_GLv1_08 + LCR13A1_VH_GLv1_06) (Fab, V domains shown, Human stabilized IgG1 Fab, 6xHis on CH1) VH: QVQLVQSGSVLAKPGASVKVSCKASGYTFTNYWTHWVRQAPGQGLEWIGTIYPGNSDTNYNQKFKDRAKLTAVTSTSTVYMELSSLRSEDTALYYCTREDSRSLNFNGWDYFDHWGQGTLVTVSS VL: DIVMTQSPDSLAVSLGQRASISCRASESVDNYGISFLNWFQQKPGQPPKLLIYAASNQGSGVPSRFSGSGSGTDFTLNIHPLEAEDAATYYCQQSKEVPRTFGGGTKVEIK", "measuredQuantity": "binding result", "testResult": "binds"}
